Assign Raw Data - Background (RLU) to each entry below.
Tested On: PPARγ LBD protein (Homo sapiens)
Construct: 1 nM 6xHis-PPAR LBD protein
Sequence (P37231 238-503 limits assumed): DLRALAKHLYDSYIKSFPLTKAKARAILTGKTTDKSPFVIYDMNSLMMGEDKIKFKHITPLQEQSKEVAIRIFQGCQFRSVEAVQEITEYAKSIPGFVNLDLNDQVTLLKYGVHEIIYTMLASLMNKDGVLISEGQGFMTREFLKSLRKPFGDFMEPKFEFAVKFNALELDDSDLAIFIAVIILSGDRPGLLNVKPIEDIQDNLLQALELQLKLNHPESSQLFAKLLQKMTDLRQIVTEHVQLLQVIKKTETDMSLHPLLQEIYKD
Protocol Details: LanthaScreen TR-FRET competitive ligand displacement (PPARγ protein binding) assay
Protocol Conditions: TR-FRET signal at 0.00128 µM
Give a bare numeral; the unit RLU is implied.

Check the records and state Raw Data - Background (RLU) for C=CCc1ccc(OCC(=O)Nc2ccc(C)cc2)c(OC)c1
1.787

Indicate the recorded Raw Data - Background (RLU) value for this molecule: C=CCc1ccc(OCC(=O)Nc2ccc(OC)cc2)c(OC)c1
1.73

Specify measured Raw Data - Background (RLU) for C=CCc1ccc(OCC(=O)Nc2ccc(Cl)cc2)c(OC)c1 .
1.672

Tell us which Raw Data - Background (RLU) value is on record for C=CCc1ccc(OCC(=O)Nc2cccc(C)c2)c(OC)c1
1.61
